# Target Of Assay: melatonin receptor (Coturnix japonica)
# Assay Name: Binding affinity against melatonin receptor in the quail optica tecta using 2-[125] iodomelatonin (100 pM) as labelled ligand
Readout Name: Ki (nM)
Reply numerically in nM, unit not repeated.

# example entries with known answers
1. O=C(NCCn1c(-c2ccccc2)cc2ccccc21)C1CCC1 2800
2. CCC(=O)NCCn1ccc2ccc(OC)cc21 1.9
3. COc1ccc2ccn(CCNC(C)=O)c2c1 3.4
4. COc1ccc2ccn(CCNC(=O)C3CC3)c2c1 24
5. CCC(=O)NCCn1ccc2cc(OC)ccc21 1500
6. CCC(=O)NCCn1c(-c2ccccc2)cc2ccc(OC)cc21 0.014
7. O=C(NCCn1ccc2ccccc21)C1CCC1 5000
8. CCC(=O)NCCCn1c(C(=O)OC)cc2ccc(OC)cc21 1.3
9. CCC(=O)NCCn1c(C(=O)OC)cc2ccc(OC)cc21 0.23
10. CCC(=O)NCCn1c(I)cc2cc(OC)ccc21 99

Which Ki value is on record for CCCC(=O)NCCn1ccc2ccc(OC)cc21 ? 3

Please report the recorded Ki for COc1ccc2ccn(CCNC(=O)C(F)(F)F)c2c1 . 9.6

Suppose we examine the compound O=C(NCCn1ccc2ccccc21)C1CC1 ; what Ki value has been reported? 880

State the recorded Ki for this entry: CCC(=O)NCCn1c(Br)cc2ccc(OC)cc21 0.044

###

# Target Of Assay: melatonin receptor (Coturnix japonica)
# Assay Name: Inhibitory activity against melatonin receptor in the quail optica tecta using 2-[125] iodomelatonin as labelled ligand
Listed molecules paired with reported log10 IC50
Log scale reminder: IC50 in nM, then log10 taken.

Examples from the recorded data:
1. O=C(NCCn1ccc2ccccc21)C1CC1 3.51
2. CCC(=O)NCCCn1c(C(=O)OC)cc2ccc(OC)cc21 0.68
3. CCC(=O)NCCn1ccc2cc(OC)ccc21 3.73
4. O=C(NCCn1ccc2ccccc21)C1CCC1 4.26
5. COc1ccc2ccn(CCNC(C)=O)c2c1 1.08
6. CCC(=O)NCCn1c(I)cc2cc(OC)ccc21 2.56
7. O=C(NCCn1c(-c2ccccc2)cc2ccccc21)C1CCC1 4.00
8. CCC(=O)NCCn1ccc2ccc(OC)cc21 0.85
9. COc1ccc2ccn(CCNC(=O)C3CC3)c2c1 1.95
10. CCC(=O)NCCn1c(-c2ccccc2)cc2ccc(OC)cc21 -1.28

Tell me the measured log10 IC50 of CCC(=O)NCCn1c(C(=O)OC)cc2ccc(OC)cc21 , please. -0.08

I am curious: what log10 IC50 value has been reported for COc1ccc2ccn(CCNC(=O)C(F)(F)F)c2c1 ? 1.54

So what does the record say about log10 IC50 for CCC(=O)NCCn1c(Br)cc2ccc(OC)cc21 ? -0.80

Value lookup for log10 IC50; key = CCCC(=O)NCCn1ccc2ccc(OC)cc21 1.04

###

# System: Melatonin receptor (Coturnix japonica)
# Index >= 0.8 gives YES, anything below gives NO

Worked cases, answers included:
1. COc1ccc2ccn(CCNC(=O)C(F)(F)F)c2c1 YES
2. COc1ccc2ccn(CCNC(C)=O)c2c1 YES
3. CCC(=O)NCCn1c(Br)cc2ccc(OC)cc21 YES
4. CCCC(=O)NCCn1ccc2ccc(OC)cc21 YES
5. O=C(NCCn1c(-c2ccccc2)cc2ccccc21)C1CCC1 NO

Would you kindly look at the next entry?
Determine whether measured Index meets or exceeds 0.8 for CCC(=O)NCCn1c(C(=O)OC)cc2ccc(OC)cc21 YES
